These data points were gathered from ChEMBL document CHEMBL4425165.

experiment: Solubility of the compound at pH 2; format: physicochemical; details: buffer
OBSERVED PROPERTY: solubility (µg/mL)
Record the value in µg/mL, omitting the unit from your answer.

# example entries with known answers
Cc1cc(-c2cnn3c(NC[C@H]4C[C@H](O)C4)cc(Oc4cccnc4)nc23)ccc1C(=O)NC1CC1 = 930
Cc1cc(-c2cnn3c(NC[C@H]4C[C@@](C)(O)C4)cc(Oc4cccnc4)nc23)ccc1C(=O)NC1CC1 [LUVIXASERTIB] = 560
Cc1cc(-c2cnn3c(NCCN4CCOCC4)cc(Oc4ccccc4)nc23)ccc1C(=O)NC1CC1 = 12000
Cc1cc(-c2cnn3c(NCCN4CCOCC4)cc(Oc4cccc(F)c4)nc23)ccc1C(=O)NC1CC1 = 11000
Cc1cc(-c2cnn3c(NCC4CCOCC4)nc(Oc4ccccc4)nc23)ccc1C(=O)NC1CC1 = 1.5

Looking for the measured solubility of "Cc1cc(-c2cnn3c(NCC4CCOCC4)cc(NC4CCCC4)nc23)ccc1C(=O)NC1CC1" , can you help?
88

What would you report for "Cc1cc(-c2cnn3c(NCC4CCOCC4)nc(NC4CCCC4)nc23)ccc1C(=O)NC1CC1" ?
28
